PARAMETER: melting point

Cc1nc(N2CCCC2)[nH]c(=O)c1CC(=O)O ... 262 to 264 °C
COc1ccc(OC)c(-c2nn(-c3ccccc3)cc2C(=O)O)c1 ... 174 to 176 °C

Q: // lookup melting point for CC(C)(N)CNC(=O)OC(C)(C)C
Ans: 68 to 70 °C

Q: Request: N#CCCCS(=O)(=O)c1ccc(C(=O)O)cc1
Ans: 195 to 197 °C

Q: And the next one, O=C(O)c1ccn(-c2ccccc2Cl)n1 ?
Ans: 187 to 189 °C

Q: Next up: NC(=O)c1ccc(N)cc1F
Ans: 148 to 150 °C

Q: Can you handle NS(=O)(=O)c1cnn(Cc2ccccc2)c1 next?
Ans: 157 to 159 °C

Q: Same thing, different molecule: O=C1CCCC1c1ccc(Cl)c(Cl)c1 (configuration not stated)
Ans: 63 to 65 °C

Q: Would you kindly repeat that for OCc1c(Cl)nc2ccccn12 ?
Ans: 177 to 179 °C

Q: Please give the result for CC(C)c1ccsc1C(=O)O too.
Ans: 97 to 99 °C

Q: Also N#CCC1(Sc2ccccc2N)CCCC1 , if possible.
Ans: 89 to 91 °C

Q: // same read-out, input: CCS(=O)(=O)c1ccccc1Oc1ccc(N)cc1
Ans: 124 to 126 °C

Q: Next: CCN(CC)S(=O)(=O)c1ccc(Cl)nc1
Ans: 82 to 84 °C

Q: And the next one, NC(N=O)=C1NC=Cc2ccccc21 ?
Ans: 125 to 127 °C

Q: Input CC(NC(=O)Oc1ccccc1)C(=O)O (configuration not stated)
Ans: 122 to 124 °C

Q: Same lookup for CC(C)CNC(N)=S , please.
Ans: 99 to 101 °C

Q: Can you check O=C(O)COC(c1ccccc1)c1ccccc1 next?
Ans: 81 to 83 °C

====

PARAMETER: melting point

Sample answers from the record:
CN(C)C(=O)c1cccc([N+](=O)[O-])c1 ... 79 to 81 °C
CCCn1c(=O)[nH]c(=O)c2cc(C(=O)O)cnc21 ... 235 to 237 °C
COc1cccc(NC(=O)COc2ccc(C(=O)O)cc2)c1 ... 131 to 134 °C
O=Cc1cn(-c2ccccc2)nn1 ... 97 to 99 °C
CCOCCCNc1nnc(S)s1 ... 63 to 65 °C

Q: Report melting point for CCc1cc(N)nc(C)n1 please.
Ans: 149 to 151 °C

Q: Try the compound O=S(=O)(Cl)C1=Cc2ccc(OC(F)F)cc2CC1
Ans: 72 to 74 °C

Q: // query: COc1ccc(-c2cc(C(=O)NN)c3ccccc3n2)cc1OC
Ans: 181 to 183 °C

Q: Try this compound next: Cn1c(Cl)cnc1CC#N
Ans: 142 to 144 °C

Q: Ok, now O=C(O)CN1CSCC1=O
Ans: 171 to 173 °C

Q: Next entry: COc1ccc(NC(=O)c2ccccc2N)cn1
Ans: 129 to 131 °C

Q: Proceed to Clc1noc(-c2ccoc2)n1
Ans: 48 to 50 °C

Q: What do we get for O=C1NC2(CCCC2)C(=O)N1Cc1ccc(Cl)nc1 ?
Ans: 169 to 171 °C

Q: // repeat for O=C1CSC(=S)N1c1cccnc1 and report
Ans: 159 to 161 °C

Q: What do we get for NCCCN1C(=O)C2C3C=CC(C3)C2C1=O (stereo not given) ?
Ans: 66 to 68 °C

Q: And the next one, Cc1ncc(C(=O)O)c(Cl)c1Br ?
Ans: 152 to 154 °C

Q: Check N#CCN1CCC(=O)CC1 too.
Ans: 91 to 93 °C

Q: Another compound: Nc1cc(Br)c[nH]c1=S
Ans: 190 to 192 °C

Q: Next record, please: CC1C(=O)NCCN1C(=O)c1ccc(Cl)s1 (stereo not given)
Ans: 149 to 151 °C

Q: Try the compound CC(C)(C)OC(=O)N1CCCC(C)(C(=O)O)C1 (stereo not given)
Ans: 117 to 119 °C

Recorded values, source a melting point compilation (Tetko et al.).
